Assign EC50 mouse to each entry below.
Molecular target: T1, mouse GLP-1 receptor (mouse, UniProt O35659 22-463)
T1 sequence (looked up): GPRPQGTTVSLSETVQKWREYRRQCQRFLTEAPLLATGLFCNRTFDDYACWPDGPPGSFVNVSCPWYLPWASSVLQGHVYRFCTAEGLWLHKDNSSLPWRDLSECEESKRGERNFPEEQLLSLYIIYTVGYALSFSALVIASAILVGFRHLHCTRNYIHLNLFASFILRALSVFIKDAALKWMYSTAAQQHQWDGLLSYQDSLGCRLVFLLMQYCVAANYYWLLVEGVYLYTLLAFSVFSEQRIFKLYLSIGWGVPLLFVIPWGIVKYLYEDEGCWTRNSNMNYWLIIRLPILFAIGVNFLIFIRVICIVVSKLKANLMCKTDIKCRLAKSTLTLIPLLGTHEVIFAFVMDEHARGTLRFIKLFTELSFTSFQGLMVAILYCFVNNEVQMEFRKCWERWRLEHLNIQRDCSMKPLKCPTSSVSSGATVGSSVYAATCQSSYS
Assay: cell-based or functional assay
No end group written: not given here.
One number for each entry, in nM.

Sample records with EC50 mouse:
1. MKHAEGTFTSDVSSYLEGQAAKEFIAWLVKGR (not fully specified; ends and bridges not checked, Not pegylated) [MK-GLP1 (SEQ ID NO: 255)] : 12
2. MIHAEGTFTSDVSSYLEGQAAKEFIAWLVKGR (not fully specified; ends and bridges not checked, Not pegylated) [MI-GLP1 (SEQ ID NO: 260)] : 6
3. MHAEGTFTSDVSSYLEGQAAKEFIAWLVKGR (Not pegylated) [M-GLP1 (SEQ ID NO: 256)] : 0.5

# map each binder to its EC50 mouse
1. MNHAEGTFTSDVSSYLEGQAAKEFIAWLVKGR (ends and bridges not checked, Not pegylated) [MN-GLP1 (SEQ ID NO: 263)]
2. SHAEGTFTSDVSSYLEGQAAKEFIAWLVKGR (ends and bridges not checked, Not pegylated; also called S-CLP-1) [S-GLP-1 (SEQ ID NO: 250)]

Result:
1. 2
2. 2

Origin of measurements: patent US20100048468A1
